System: N. gonorrhoeae WHO Z
Test: Liquid broth MIC in Fastidious broth
Details: Neisseria gonorrhoeae, read-out: Minimum Inhibitory Concentration (MIC), N. gonorrhoeae WHO Z
measured.metric: MIC

INSERT INTO assay_data (compound, test_value) VALUES
  ('O=C(O)c1cccc2c1OB(O)[C@@H](NC(=O)C(NC(=O)[C@H]1CCCN1)c1ccc(P(=O)(O)O)cc1)C2 (stereo partly drawn) [Example 52]', '16 to 32 µg/mL'),
  ('O=C(O)c1cccc2c1OB(O)[C@@H](NC(=O)C(NC(=O)c1ccc[nH]c1=O)c1ccc(P(=O)(O)O)cc1)C2 (stereo partly drawn) [Example 174]', '16 to 32 µg/mL'),
  ('O=C(N[C@H](C(=O)N[C@H]1Cc2cccc(C(=O)O)c2OB1O)c1ccc(P(=O)(O)O)cc1)c1ccc(C(F)(F)F)cn1 (single isomer, unassigned) [Example 192]', '1 to 2 µg/mL'),
  ('CCN1CCN(C(=O)NC(C(=O)N[C@H]2Cc3cccc(C(=O)O)c3OB2O)c2ccc(CP(=O)(O)O)cc2)C(=O)C1=O (stereo partly drawn) [Example 20]', '< 1 µg/mL'),
  ('O=C(CN1CCN(C(=O)NC(C(=O)N[C@H]2Cc3ccc(F)c(C(=O)O)c3OB2O)c2cc(F)c(O)c(O)c2Cl)C(=O)C1=O)Nc1ccc(O)cc1 (stereo partly drawn) [Example 230]', '4 to 8 µg/mL'),
  ('O=C(CN1CCN(C(=O)NC(C(=O)N[C@H]2Cc3ccc(F)c(C(=O)O)c3OB2O)c2cc(F)c(O)c(O)c2Cl)C(=O)C1=O)Nc1nccs1 (stereo partly drawn) [Example 235]', '16 to 32 µg/mL');

----------
Molecular target: PBP3 from Escherichia coli (K-12) (Escherichia coli)
Construct: made in house
Sequence (P0AD68 1-577): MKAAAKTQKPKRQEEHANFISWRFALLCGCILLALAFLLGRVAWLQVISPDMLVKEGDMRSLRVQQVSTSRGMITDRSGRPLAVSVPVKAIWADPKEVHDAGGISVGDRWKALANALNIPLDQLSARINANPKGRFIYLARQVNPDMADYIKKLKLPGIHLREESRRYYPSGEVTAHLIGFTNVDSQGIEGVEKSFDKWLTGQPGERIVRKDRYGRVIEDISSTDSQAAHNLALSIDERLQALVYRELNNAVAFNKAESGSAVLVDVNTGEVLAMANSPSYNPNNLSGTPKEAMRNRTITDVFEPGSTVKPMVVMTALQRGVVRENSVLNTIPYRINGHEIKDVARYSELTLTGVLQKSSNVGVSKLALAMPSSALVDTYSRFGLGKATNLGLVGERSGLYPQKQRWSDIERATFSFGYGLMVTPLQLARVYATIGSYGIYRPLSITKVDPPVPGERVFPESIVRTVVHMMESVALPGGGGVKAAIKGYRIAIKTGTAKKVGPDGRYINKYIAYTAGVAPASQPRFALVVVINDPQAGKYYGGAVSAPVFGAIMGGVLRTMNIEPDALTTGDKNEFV
Assay: Bocillin-FL fluorescence polarization competition binding, E. coli PBP3
pEC50: −log10 of the molar value.
Items are presented alongside their recorded pEC50.
measured.metric: pEC50

INSERT INTO measurements (compound, test_value) VALUES
  ('O=C(O)c1cccc2c1OB(O)[C@@H](NC(=O)[C@@H](NC(=O)c1cccn(C(F)F)c1=O)c1ccc(P(=O)(O)O)cc1)C2 (single isomer, unassigned)', '4.30 to 5.00'),
  ('O=C(NCCCN1CCN(C(=O)N[C@@H](C(=O)N[C@H]2Cc3ccc(F)c(C(=O)O)c3OB2O)c2cc(F)c(O)c(O)c2Cl)C1=O)c1ccccc1', '> 5.00'),
  ('O=C(NCCCS(=O)(=O)N1CCN(C(=O)NC(C(=O)N[C@H]2Cc3ccc(F)c(C(=O)O)c3OB2O)c2cc(F)c(O)c(O)c2Cl)C1=O)c1ccccc1 (stereo partly drawn)', '> 5.00');

----------
Items are presented alongside their recorded MIC.
Tested on: B. thailandensis ATCC 700388
Assay: microbe, parasite or virus in culture
Assay type: cell-based
Details: Burkholderia thailandensis, ATCC700388, read-out: Minimum inhibitory concentration (MIC), B. thailandensis ATCC 700388
measured.metric: MIC

INSERT INTO results (molecule, measured_metric, test_value) VALUES
  ('O=C(O)c1c(F)ccc2c1OB(O)[C@@H](NC(=O)[C@H](NC(=O)N1CCN(C3CCN(S(=O)(=O)c4ccc5[nH]nnc5c4)CC3)C1=O)c1cc(F)c(O)c(O)c1Cl)C2 (single isomer, unassigned)', 'MIC', '2 to 4 µg/mL'),
  ('CS(=O)(=O)N1CCN(C(=O)N[C@@H](C(=O)N[C@H]2Cc3ccc(F)c(C(=O)O)c3OB2O)c2ccc(P(=O)(O)O)c(F)c2)C1=O (single isomer, unassigned)', 'MIC', '32 to 64 µg/mL'),
  ('O=C(NCCN1CCN(C(=O)NC(C(=O)N[C@H]2Cc3ccc(F)c(C(=O)O)c3OB2O)c2cc(F)c(O)c(O)c2Cl)C1=O)c1nccs1 (some centres unmarked)', 'MIC', '< 1 µg/mL'),
  ('CN(CCN1CCN(C(=O)NC(C(=O)N[C@H]2Cc3ccc(F)c(C(=O)O)c3OB2O)c2cc(F)c(O)c(O)c2Cl)C(=O)C1=O)S(=O)(=O)c1ccc(C(N)=O)cc1 (some centres unmarked)', 'MIC', '2 to 4 µg/mL'),
  ('O=C(O)c1c(F)ccc2c1OB(O)[C@@H](NC(=O)C(NC(=O)N1CCN(C3CCN(C(=O)c4ccc(O)cc4)CC3)C(=O)C1=O)c1cc(F)c(O)c(O)c1Cl)C2 (some centres unmarked)', 'MIC', '< 1 µg/mL');

----------
Items are presented alongside their recorded MIC.
System: P. aeruginosa CDC-0054
Assay: microbe, parasite or virus in culture
Assay type: cell-based
Conditions: Pseudomonas aeruginosa, CDC0054, read-out: Minimum inhibitory concentration, P. aeruginosa CDC-0054
measured.metric: MIC

INSERT INTO results (molecule, measured_target, test_value) VALUES
  ('O=C(NCCCS(=O)(=O)N1CCN(C(=O)N[C@H](C(=O)N[C@H]2Cc3ccc(F)c(C(=O)O)c3OB2O)c2ccc(P(=O)(O)O)cc2)C1=O)c1ccc(O)c(O)c1Cl (single isomer, unassigned)', 'P. aeruginosa CDC-0054', '> 128 µg/mL'),
  ('O=C(NCCN1CCN(C(=O)NC(C(=O)N[C@H]2Cc3ccc(F)c(C(=O)O)c3OB2O)c2cc(F)c(O)c(O)c2Cl)C(=O)C1=O)c1ccccc1 (some centres unmarked)', 'P. aeruginosa CDC-0054', '2 to 4 µg/mL'),
  ('O=C(NCCCN1CCN(C(=O)NC(C(=O)N[C@H]2Cc3ccc(F)c(C(=O)O)c3OB2O)c2cc(F)c(O)c(O)c2Cl)C(=O)C1=O)c1ccnc(F)c1 (some centres unmarked)', 'P. aeruginosa CDC-0054', '< 1 µg/mL'),
  ('O=C(O)c1c(F)ccc2c1OB(O)[C@@H](NC(=O)C(NC(=O)N1CCN(C3CCN(S(=O)(=O)c4cccc(O)c4)CC3)C(=O)C1=O)c1cc(F)c(O)c(O)c1Cl)C2 (some centres unmarked)', 'P. aeruginosa CDC-0054', '< 1 µg/mL'),
  ('O=C(NCCCN1CCN(C(=O)NC(C(=O)N[C@H]2Cc3ccc(F)c(C(=O)O)c3OB2O)c2cc(F)c(O)c(O)c2Cl)C(=O)C1=O)c1cc(F)c(F)c(O)c1F (some centres unmarked)', 'P. aeruginosa CDC-0054', '< 1 µg/mL'),
  ('O=C(NCCN1CCN(C(=O)NC(C(=O)N[C@H]2Cc3ccc(F)c(C(=O)O)c3OB2O)c2cc(F)c(O)c(O)c2Cl)C(=O)C1=O)c1cccc(O)c1 (some centres unmarked)', 'P. aeruginosa CDC-0054', '8 to 16 µg/mL'),
  ('O=C(O)c1c(F)ccc2c1OB(O)[C@@H](NC(=O)C(NC(=O)N1CCN(C3CCN(C(=O)c4c(F)ccc(O)c4F)CC3)C(=O)C1=O)c1cc(F)c(O)c(O)c1Cl)C2 (some centres unmarked)', 'P. aeruginosa CDC-0054', '< 1 µg/mL'),
  ('O=C(NCCCS(=O)(=O)N1CCN(C(=O)NC(C(=O)N[C@H]2Cc3ccc(F)c(C(=O)O)c3OB2O)c2cc(F)c(O)c(O)c2Cl)C1=O)Nc1cccc(O)c1 (some centres unmarked)', 'P. aeruginosa CDC-0054', '2 to 4 µg/mL'),
  ('NCc1cc(O)cc(C(=O)N2CCC(N3CCN(C(=O)N[C@@H](C(=O)N[C@H]4Cc5ccc(F)c(C(=O)O)c5OB4O)c4cc(F)c(O)c(O)c4Cl)C3=O)CC2)c1 (single isomer, unassigned)', 'P. aeruginosa CDC-0054', '< 1 µg/mL'),
  ('O=C(NCCN1CCN(C(=O)NC(C(=O)N[C@H]2Cc3ccc(F)c(C(=O)O)c3OB2O)c2cc(F)c(O)c(O)c2Cl)C(=O)C1=O)c1ccc(O)cc1 (some centres unmarked)', 'P. aeruginosa CDC-0054', '2 to 4 µg/mL'),
  ('O=C(NCCS(=O)(=O)N1CCN(C(=O)NC(C(=O)N[C@H]2Cc3ccc(F)c(C(=O)O)c3OB2O)c2cc(F)c(O)c(O)c2Cl)C1=O)Nc1cccc(O)c1 (some centres unmarked)', 'P. aeruginosa CDC-0054', '2 to 4 µg/mL');

----------
Target: A. baumannii PBP2 (Acinetobacter baumannii, UniProt D0C8Z9)
Sequence (D0C8Z9 whole entry): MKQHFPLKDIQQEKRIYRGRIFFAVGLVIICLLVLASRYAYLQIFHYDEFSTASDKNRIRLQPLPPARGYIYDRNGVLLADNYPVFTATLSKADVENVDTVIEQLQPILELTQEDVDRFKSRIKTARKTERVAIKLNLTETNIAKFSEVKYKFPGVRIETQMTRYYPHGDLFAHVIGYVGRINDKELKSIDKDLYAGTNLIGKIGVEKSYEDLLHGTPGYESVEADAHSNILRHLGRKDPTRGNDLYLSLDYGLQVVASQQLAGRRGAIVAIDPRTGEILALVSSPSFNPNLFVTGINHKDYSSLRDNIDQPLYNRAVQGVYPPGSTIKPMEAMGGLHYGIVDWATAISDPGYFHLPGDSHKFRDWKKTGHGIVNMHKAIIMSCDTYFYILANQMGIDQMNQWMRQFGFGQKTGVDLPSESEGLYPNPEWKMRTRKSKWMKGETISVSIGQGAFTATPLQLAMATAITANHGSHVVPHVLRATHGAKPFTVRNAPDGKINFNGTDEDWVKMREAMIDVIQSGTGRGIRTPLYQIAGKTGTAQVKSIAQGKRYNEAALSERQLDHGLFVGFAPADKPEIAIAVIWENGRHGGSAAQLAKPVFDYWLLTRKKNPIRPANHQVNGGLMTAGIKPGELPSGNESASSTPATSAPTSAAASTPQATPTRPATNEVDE
Assay: Bocillin-FL competition binding via gel filtration, A. baumannii PBP2
pEC50: −log10 of the molar value.
measured.metric: pEC50

INSERT INTO measurements (compound, measured_target, test_value) VALUES
  ('O=C(NCCCN1CCN(C(=O)N[C@@H](C(=O)N[C@H]2Cc3ccc(F)c(C(=O)O)c3OB2O)c2cc(F)c(O)c(O)c2Cl)C1=O)Nc1cccc(O)c1', 'A. baumannii PBP2 (Acinetobacter baumannii, UniProt D0C8Z9)', '> 5.00'),
  ('O=C(NCCCN1CCN(C(=O)NC(C(=O)N[C@H]2Cc3ccc(F)c(C(=O)O)c3OB2O)c2cc(F)c(O)c(O)c2Cl)C(=O)C1=O)c1ccc(F)c(O)c1Cl (stereo partly drawn)', 'A. baumannii PBP2 (Acinetobacter baumannii, UniProt D0C8Z9)', '> 5.00'),
  ('NCc1cc(O)cc(C(=O)N2CCC(N3CCN(C(=O)N[C@@H](C(=O)N[C@H]4Cc5ccc(F)c(C(=O)O)c5OB4O)c4cc(F)c(O)c(O)c4Cl)C3=O)CC2)c1 (single isomer, unassigned)', 'A. baumannii PBP2 (Acinetobacter baumannii, UniProt D0C8Z9)', '4.30 to 5.00');

Values were extracted from patent US20240270762A1.
